Answer each item with its documented AC50.
# System: CYP3A4 (Homo sapiens)
# Sequence (P08684 whole entry): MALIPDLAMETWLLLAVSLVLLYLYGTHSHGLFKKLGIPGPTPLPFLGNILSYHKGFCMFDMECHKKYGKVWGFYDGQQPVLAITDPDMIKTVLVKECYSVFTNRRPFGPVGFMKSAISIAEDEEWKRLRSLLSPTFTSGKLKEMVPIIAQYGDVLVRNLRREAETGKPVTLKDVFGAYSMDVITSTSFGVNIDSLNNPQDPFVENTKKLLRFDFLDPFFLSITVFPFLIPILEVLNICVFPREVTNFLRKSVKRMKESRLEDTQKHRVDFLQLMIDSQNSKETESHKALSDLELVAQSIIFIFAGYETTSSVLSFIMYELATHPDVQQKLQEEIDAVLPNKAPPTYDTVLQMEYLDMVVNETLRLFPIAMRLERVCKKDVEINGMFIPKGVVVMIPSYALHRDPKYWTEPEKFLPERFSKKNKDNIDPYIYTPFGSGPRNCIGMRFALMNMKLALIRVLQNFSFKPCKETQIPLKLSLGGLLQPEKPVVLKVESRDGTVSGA
# Assay Text: biochemical
One number for each entry, in µM.

Some solved entries appear below for comparison.
O=C(c1ccccc1)c1ccc(Cl)cc1 :: 35.6
CC(C)(c1ccccc1)c1ccccc1 :: 34.4
O=C(O)Cc1cc(I)c(Oc2cc(I)c(O)c(I)c2)c(I)c1 :: 9.83

Would you mind giving AC50 for every compound in the list below?
1. NNS(=O)(=O)c1ccc(Oc2ccc(S(=O)(=O)NN)cc2)cc1 [4,4'-Oxybis(benzenesulfonhydrazide)]
2. COc1ccc(COC(C)=O)cc1 [4-Methoxybenzyl acetate]
3. CCOC(=O)COC(=O)c1ccccc1C(=O)OCC [Ethyl phthalyl ethyl glycolate]
4. O=C1c2ccccc2C(=O)c2c(Cl)cccc21

Ans:
7.84
40.8
47.4
2.37

* * *

Answer each item with its documented CYP2C19 Efficacy (in parenthesis).
# System: UniProt P33261
# Sequence (P33261 whole entry): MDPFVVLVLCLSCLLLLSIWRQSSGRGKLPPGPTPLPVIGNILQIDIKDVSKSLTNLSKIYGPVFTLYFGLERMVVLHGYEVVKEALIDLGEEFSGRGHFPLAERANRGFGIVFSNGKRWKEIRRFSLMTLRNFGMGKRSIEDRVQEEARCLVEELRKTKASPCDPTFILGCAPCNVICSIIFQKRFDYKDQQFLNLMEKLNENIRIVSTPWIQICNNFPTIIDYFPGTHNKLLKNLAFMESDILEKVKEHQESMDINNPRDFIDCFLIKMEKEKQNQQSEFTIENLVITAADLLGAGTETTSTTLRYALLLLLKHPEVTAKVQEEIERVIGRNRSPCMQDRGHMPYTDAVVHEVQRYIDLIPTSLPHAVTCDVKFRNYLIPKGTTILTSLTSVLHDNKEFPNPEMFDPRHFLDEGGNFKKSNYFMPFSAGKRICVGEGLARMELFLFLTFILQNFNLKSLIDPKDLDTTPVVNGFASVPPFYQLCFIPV

Some solved entries appear below for comparison.
OCC(c1ccc(Cl)cc1)c1ccc(Cl)cc1 :: 0.14 ± 0.07 (-161 ± 31) %
CC(C)(C)c1cc(CCC(=O)NN)cc(C(C)(C)C)c1O :: 5.4 ± 1.6 (-136 ± 2) %
Cc1cc(CCC(=O)OCCOCCOCCOC(=O)CCc2cc(C)c(O)c(C(C)(C)C)c2)cc(C(C)(C)C)c1O :: 4.01 ± 1.12 (-130 ± 10) %
CC(=O)c1ccc2ccc3ccccc3c2c1 :: 22.42 ± 2.58 (-138 ± 3) %
CC(=O)[O-].CC(=O)[O-].[Hg+2] [Mercury(II) acetate] :: 0.91 ± 0.47 (-137 ± 5) %

Would you mind giving CYP2C19 Efficacy (in parenthesis) for every molecule in the list below?
1. CCCCCCCCCCCCCC[P+](CCCC)(CCCC)CCCC.CCCCCCCCCCCCc1ccc(S(=O)(=O)[O-])cc1
2. C=CCc1cc(S(=O)(=O)c2ccc(O)c(CC=C)c2)ccc1O
3. O=S(=O)(Oc1ccc(Cl)cc1)c1ccccc1
4. O=C(NCc1cccnc1)Nc1ccc([N+](=O)[O-])cc1
5. C=CC(=O)OCC(CO)(COCC(COC(=O)C=C)(COC(=O)C=C)COC(=O)C=C)COC(=O)C=C [Dipentaerythritol pentaacrylate]
6. O=C(C(=O)c1ccc(Br)cc1)c1ccc(Br)cc1
7. Cc1ccc([N+](=O)[O-])[c]2c1[O][Hg]2

Ans:
1. 21.96 ± 3.74 (-142 ± 38) %
2. 3.47 ± 1.89 (-136 ± 7) %
3. 0.78 ± 0.29 (-135 ± 6) %
4. 3.28 ± 1.56 (-135 ± 13) %
5. 8.87 ± 1.02 (-135 ± 9) %
6. 0.71 ± 0.31 (-137 ± 6) %
7. 1.28 ± 0.79 (-139 ± 25) %

Would you mind giving CYP2C19 Efficacy (in parenthesis) for every molecule in the list below?
1. O=C(Nc1ccccc1SSc1ccccc1NC(=O)c1ccccc1)c1ccccc1 [2,2'-Dibenzoylaminodiphenyl disulfide]
2. O=C1CCCc2c1cc1ccc3cccc4ccc2c1c34 [9,10-Dihydrobenzo[a]pyren-7(8H)-one]
3. CC(C)CC(N(C)C)C1(c2ccc(Cl)cc2)CCC1.Cl (centres unmarked) [Sibutramine hydrochloride]
4. CCOP(=O)([O-])OCC.CCn1cc[n+](C)c1
5. C=CCOC(Cn1ccnc1)c1ccc(Cl)cc1Cl.O=S(=O)(O)O (centres unmarked) [Imazalil sulfate]
6. Nc1nc2ccccc2n1Cc1ccc(F)cc1
7. OC(c1ccc(Cl)cc1)(c1ccc(Cl)cc1)c1cccnc1
8. CCCCCCCCCCCCCCCCCC(=O)O.OCCN(CCO)CCO [Triethanolamine stearate]

Ans:
3.94 ± 2.15 (-155 ± 9) %
26.27 ± 7.32 (-125 ± 17) %
8.47 ± 1.44 (-127 ± 8) %
68.44 ± 11.66 (-161 ± 32) %
0.22 ± 0.08 (-143 ± 13) %
17.62 ± 3.69 (-115 ± 18) %
0.08 ± 0.01 (-151 ± 12) %
0.42 ± 0.18 (-127 ± 1) %

Would you mind giving CYP2C19 Efficacy (in parenthesis) for every molecule in the list below?
1. Cl.Clc1ccc(Cn2c(CN3CCCC3)nc3ccccc32)cc1 [Clemizole hydrochloride]
2. COP(=S)(NC(C)C)Oc1ccc(C)cc1[N+](=O)[O-] (centres unmarked)
3. CCC(OC(C)=O)C(CC(C)NC)(c1ccccc1)c1ccccc1.Cl (centres unmarked)
4. Oc1cc2ccccc2c2ccccc12
5. CCCCCCCCCCCCCCCCn1cc[n+](C)c1.[Cl-] [1-Hexadecyl-3-methylimidazolium chloride]
6. CC(=O)O.CC(C)c1ccc2c(c1)CC[C@H]1[C@](C)(CN)CCC[C@]21C [Dehydroabietylamine acetate]

Ans:
1. 0.68 ± 0.17 (-140 ± 7) %
2. 0.41 ± 0.19 (-132 ± 27) %
3. 21.99 ± 10.33 (-95 ± 7) %
4. 1.22 ± 0.17 (-132 ± 15) %
5. 52.99 ± 35.71 (-145 ± 35) %
6. 14.98 ± 6.91 (-121 ± 11) %
